Listing of entries alongside the reported pEC50.
target: T1, mouse serum albumin (mouse, UniProt P07724 25-608); assay: direct binding ELISA, albumin coated
T1 construct: also called MSA; MuSA
T1 sequence (P07724 25-608 limits assumed): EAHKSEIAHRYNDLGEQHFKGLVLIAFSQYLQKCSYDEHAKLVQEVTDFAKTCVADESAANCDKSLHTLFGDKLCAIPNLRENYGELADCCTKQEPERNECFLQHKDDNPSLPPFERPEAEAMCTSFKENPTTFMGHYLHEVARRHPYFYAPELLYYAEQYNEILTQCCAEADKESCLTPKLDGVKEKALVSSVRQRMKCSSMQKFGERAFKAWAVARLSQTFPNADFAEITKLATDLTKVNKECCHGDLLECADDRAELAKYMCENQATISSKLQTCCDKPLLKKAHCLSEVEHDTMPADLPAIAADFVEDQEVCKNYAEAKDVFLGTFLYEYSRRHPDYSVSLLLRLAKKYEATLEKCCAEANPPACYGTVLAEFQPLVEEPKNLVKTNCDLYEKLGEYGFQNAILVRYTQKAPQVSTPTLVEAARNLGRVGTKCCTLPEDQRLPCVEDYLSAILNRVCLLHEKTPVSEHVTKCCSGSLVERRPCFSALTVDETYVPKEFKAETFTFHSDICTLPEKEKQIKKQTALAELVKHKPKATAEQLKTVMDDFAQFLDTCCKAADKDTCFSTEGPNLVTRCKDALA
Kindly note that pEC50 refers to -log10 of the concentration in mol/L and answer with the value alone.

Query: Find the recorded pEC50 belonging to PCSK9-PKE2 tandem 4472_B11 (designed binder, not shown: small tags and cut ends, The two parts are one polypeptide in the real molecule, joined by the undisclosed linker L; they are given here as separate chains.) PCSK9 10Fn3: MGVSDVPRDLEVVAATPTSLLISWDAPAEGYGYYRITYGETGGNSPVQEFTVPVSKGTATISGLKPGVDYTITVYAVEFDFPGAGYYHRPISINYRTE PKE2 10Fn3: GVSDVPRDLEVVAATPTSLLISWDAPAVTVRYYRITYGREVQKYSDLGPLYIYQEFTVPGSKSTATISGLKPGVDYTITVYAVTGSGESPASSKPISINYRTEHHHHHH and report it.
Result: 7.87

Query: Okay, and PCSK9-PKE2 tandem 4472_C08 (designed binder, The real molecule is ONE polypeptide: PCSK9 domain, undisclosed linker 'E' (a code letter, not the residue), PKE2 domain. It is given here as two chains because the linker letters are unknown., not shown: The inter-domain linker) PCSK9 domain: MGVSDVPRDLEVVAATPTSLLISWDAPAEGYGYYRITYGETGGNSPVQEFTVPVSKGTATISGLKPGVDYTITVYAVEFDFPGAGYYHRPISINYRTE PKE2 domain: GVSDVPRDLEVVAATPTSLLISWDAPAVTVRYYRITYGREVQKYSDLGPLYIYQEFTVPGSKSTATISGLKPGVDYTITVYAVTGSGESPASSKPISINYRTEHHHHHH ?
Result: 8.32

Query: Okay, and PCSK9-PKE2 tandem Adnectin w/ his tag 4472_C06 (designed binder, also called ATI-1574; ADX_4472_C06) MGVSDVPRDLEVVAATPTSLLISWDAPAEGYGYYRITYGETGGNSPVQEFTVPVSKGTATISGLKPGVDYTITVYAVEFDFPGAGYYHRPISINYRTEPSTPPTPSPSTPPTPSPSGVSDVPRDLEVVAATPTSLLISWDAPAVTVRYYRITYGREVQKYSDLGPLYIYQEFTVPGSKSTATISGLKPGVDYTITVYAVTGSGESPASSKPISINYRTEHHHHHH ?
Result: 7.81
